- assayExplanation: amyloid nucleation score (Sup35N fusion, yeast selection) (log enrichment); library NNK3; higher = more nucleation; inactive = no reads after selection;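 note: zero at mode of non-aggregating sequences after 7 days selection at 30°C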

{"substance": "YKCHMSVYRGFINCNVVLMR", "amyloid nucleation score": "inactive"}
{"substance": "CYCLLGVRLHVWIS", "amyloid nucleation score": "inactive"}
{"substance": "CYGFSK", "amyloid nucleation score": "inactive"}
{"substance": "NTFVDGKSRYYSYLRIVQIL", "amyloid nucleation score": "inactive"}
{"substance": "HSSKSTGTYFGNMS", "amyloid nucleation score": "inactive"}
{"substance": "QGISQPRHCFY", "amyloid nucleation score": "inactive"}
{"substance": "SVVLRYVLRYNRSACESRRR", "amyloid nucleation score": 0.441}
{"substance": "GFGGSSAHDRGYETRKSSLE", "amyloid nucleation score": "inactive"}
{"substance": "CNKGSNTYVVDYAVGNGH", "amyloid nucleation score": "inactive"}
{"substance": "SYNKEKVSKTFVGCPTRSMV", "amyloid nucleation score": "inactive"}
{"substance": "VLVIIKSD", "amyloid nucleation score": "inactive"}
{"substance": "AGYGSVSRLSMEKMEFNQ", "amyloid nucleation score": "inactive"}
{"substance": "FFNYIIMEIHFFALLSHRKH", "amyloid nucleation score": "inactive"}
{"substance": "LYNVMGLALASLAISNLRDK", "amyloid nucleation score": "inactive"}
{"substance": "NGGVLAGTMG", "amyloid nucleation score": "inactive"}
{"substance": "DRVSFSITY", "amyloid nucleation score": "inactive"}
{"substance": "CRGLLYISVNYNMILFQHTR", "amyloid nucleation score": "inactive"}
{"substance": "THHRPWWYHSEVGVRCMNEV", "amyloid nucleation score": 0.049}
{"substance": "RWCMVIDSTNWCSCDRKHGA", "amyloid nucleation score": 1.49}
{"substance": "QEIRTVTGALTDTWIVFICR", "amyloid nucleation score": "inactive"}
{"substance": "VENKMFDRGGFYVWMCGLSD", "amyloid nucleation score": "inactive"}
{"substance": "WSFVPRGIVVSRRLSVYTRT", "amyloid nucleation score": "inactive"}
{"substance": "IYCTFAAFSHCQQWKNLFWR", "amyloid nucleation score": -0.456}
{"substance": "LLTFALIL", "amyloid nucleation score": 0.462}
{"substance": "VNKVKILCYGHHFKGMWDLA", "amyloid nucleation score": "inactive"}
{"substance": "ESADATLREAKSSVYKKYRY", "amyloid nucleation score": "inactive"}
{"substance": "VMKSYDWEDWSSDPFIFRYV", "amyloid nucleation score": "inactive"}
{"substance": "YNYFFPYTNVYNIFSIYKAV", "amyloid nucleation score": 3.6}
{"substance": "EYSLMVNSTIDYFGDSNICE", "amyloid nucleation score": "inactive"}
{"substance": "GQAVNYFGGA", "amyloid nucleation score": "inactive"}
{"substance": "MGKTRLADLRVYRTVWLFSR", "amyloid nucleation score": "inactive"}
{"substance": "FNISIRVDIVISICNNVVFN", "amyloid nucleation score": 0.596}
{"substance": "RLITNNVTS", "amyloid nucleation score": "inactive"}
{"substance": "YPRKFINLNRHWVVVNVFRM", "amyloid nucleation score": "inactive"}
{"substance": "IAVERMIGLLPGSYF", "amyloid nucleation score": "inactive"}
{"substance": "VAVDIRALFRGRWVMNLARR", "amyloid nucleation score": -0.75}
{"substance": "YSYIEGL", "amyloid nucleation score": "inactive"}
